Assay: Tmax in rat at 15 mg/kg, ip measured after 8 hrs
Type: ADME, organism-based
Conditions: in vivo
Quantity kind: Tmax (h)
Give bare numbers, in h.

// query Tmax value for entry COc1c(C)cnc(Cn2cc(C#CCCNc3cccc4c3C(=O)N(C3CCC(=O)NC3=O)C4=O)c3c(Cl)nc(N)nc32)c1C (stereo unspecified)
1.85

----------
Assay: Half life in rat at 15 mg/kg, ip measured after 8 hrs
Format: ADME, organism-based
Details: in vivo
Quantity kind: half-life
Lab note: write values as number then unit, every time.

// query half-life value for entry COc1c(C)cnc(Cn2cc(C#CCCNc3cccc4c3C(=O)N(C3CCC(=O)NC3=O)C4=O)c3c(Cl)nc(N)nc32)c1C (stereo unspecified)
4.5 h

Ref: ChEMBL document CHEMBL5154662
